Target: Histone deacetylase
Test: Inhibition of HDAC in human HeLa cells using Fluor deLys as substrate assessed as deacetylation of substrate by fluorescence assay
Format: cell-based
Would you kindly list IC50 for each of these compounds?
# do not omit the unit; it follows the number

Recorded results for 4 compounds are shown here.
# smiles, IC50
data = [
    ("COc1cc(C/C(=N\\O)C(=O)NCCSSCCNC(=O)/C(Cc2ccc(O)c(OC)c2)=N/O)ccc1O", "40 nM"),
    ("COc1ccc(-c2cc(C(=O)NCCSSCCNC(=O)c3cc(-c4ccc(OC)cc4)on3)no2)cc1", "8310 nM"),
    ("O=C(NCCSSCCNC(=O)c1cc(-c2ccc(O)cc2)[nH]n1)c1cc(-c2ccc(O)cc2)[nH]n1", "1810 nM"),
    ("O=C(NCCSSCCNC(=O)/C(Cc1ccc(O)cc1)=N/O)/C(Cc1ccc(O)cc1)=N/O", "120 nM"),
]

Then this compound:
Prompt: Suppose we examine the compound COc1ccc(C/C(=N\O)C(=O)NCCSSCCNC(=O)/C(Cc2ccc(OC)cc2)=N/O)cc1 ; what IC50 value has been reported?
Completion: 120 nM
